System: HLA Class I molecules
Assay: HLA class I binding stability assay (pMHC-I complex dissociation, 125I-labeled β2m, scintillation counts)
Set-up: species or system human
Settings: allele B08.01; 37° C.
MEASURE: Stability (T1/2 (h))

STRUCTURE_SMILES_STRING | DISPLAY_UNIT | REPORTED_RESULT
CC(C)C[C@H](NC(=O)[C@@H]1CCCN1C(=O)[C@H](CS)NC(=O)[C@H](CC(C)C)NC(=O)[C@H](Cc1c[nH]cn1)NC(=O)[C@H](CC(N)=O)NC(=O)CNC(=O)[C@H](CC(C)C)NC(=O)[C@@H](N)CO)C(=O)O | h | 0.5

I = CC[C@H](C)[C@H](NC(=O)[C@H](CCCCN)NC(=O)[C@H](CO)NC(=O)[C@H](CCC(=O)O)NC(=O)[C@H](C)NC(=O)[C@H](CCCCN)NC(=O)[C@H](CC(C)C)NC(=O)[C@H](Cc1ccccc1)NC(=O)[C@H](CCSC)NC(=O)[C@@H](N)Cc1ccc(O)cc1)C(=O)O
II = CSCC[C@H](NC(=O)[C@@H](NC(=O)[C@H](Cc1ccc(O)cc1)NC(=O)[C@H](C)NC(=O)[C@H](CCSC)NC(=O)[C@@H](NC(=O)[C@@H](N)Cc1ccc(O)cc1)C(C)C)C(C)C)C(=O)N[C@@H](C)C(=O)NCC(=O)O
[Q] Of the two listed items, which has the higher Stability (T1/2 (h))? First: I Second: II Answer = label.
[A] II
